FYI, the data here is from ChEMBL document CHEMBL1129975.

- system.tested: Human immunodeficiency virus type 1 integrase (Human immunodeficiency virus 1, UniProt Q7ZJM1)
- Sequence (Q7ZJM1 whole entry): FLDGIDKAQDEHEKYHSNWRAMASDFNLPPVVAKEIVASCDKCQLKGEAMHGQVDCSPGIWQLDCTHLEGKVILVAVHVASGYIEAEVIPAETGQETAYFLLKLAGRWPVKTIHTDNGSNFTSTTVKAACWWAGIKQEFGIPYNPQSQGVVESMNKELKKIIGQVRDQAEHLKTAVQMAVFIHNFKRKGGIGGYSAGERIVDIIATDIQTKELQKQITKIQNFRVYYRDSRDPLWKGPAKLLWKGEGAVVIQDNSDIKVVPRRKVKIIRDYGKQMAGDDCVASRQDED
- protocol.summary: Inhibitory concentration of compound against strand transfer of HIV-1 integrase in experiment 2
observation.type: IC50 (µM)
Response body: numeric value in µM, unit text excluded.

O=C(/C=C/c1ccc(O)c(O)c1)O[C@@H]1C[C@](O)(C(=O)O)C[C@@H](O)[C@H]1O (single isomer, unassigned) = 31.3
CCN(CC)c1ccc(Cc2ccc(N(C)C)c(Cl)c2)cc1 = 38.6
O=C(O)c1ccc(C(=O)O)c2c(C(=O)O)ccc(C(=O)O)c12 = 182
Cc1ncc(COP(=O)(O)O)c(C2NC(C(=O)O)CS2)c1O (stereo not drawn) = 31.7
Cc1cc(O)c(C=O)c2c1C(=O)Oc1c(CO)c(O)c3c(c1O2)C(O)OC3=O (stereo not drawn) = 6.2

Ask | Data request, read-out IC50, for Cc1cc(O)c(C=O)c2c1C(=O)Oc1c(COC(=O)/C=C/C(=O)O)c(O)c(C(=O)O)c(C)c1O2
Reply | 7.3

Ask | Note, next up: Cc1cc(C(O)(c2cc(C)c(O)c(C(=O)O)c2)c2cc(C)c(O)c(C(=O)O)c2)cc(C(=O)O)c1O
Reply | 23

Ask | Note, next up: C[C@@](O)(/C=C/[C@H]1CC=CC(=O)O1)[C@@H](C[C@@H](O)C=CC=C/C=C/CO)OP(=O)(O)O
Reply | 52.7

Ask | Note, next up: CCCCCc1cc(O)cc2c1Oc1cc(O)cc(C(=O)CCCC)c1C(=O)O2
Reply | 28.1

###

Measured log10 of IC50 of individual entries
- system.tested: Human immunodeficiency virus type 1 integrase (Human immunodeficiency virus 1, UniProt Q7ZJM1)
- protocol.summary: Inhibitory concentration of compound against strand transfer of HIV-1 integrase in experiment 1
# values: log10(IC50), units µM

Check out these entries, answers already filled in.
O=C(/C=C/c1ccc(O)c(O)c1)O[C@@H]1C[C@](O)(C(=O)O)C[C@@H](O)[C@H]1O (single isomer, unassigned) = 1.66
O=C(/C=C/c1ccc(O)c(O)c1)O[C@H]1[C@H](O)C[C@](O)(C(=O)O)C[C@H]1OC(=O)/C=C/c1ccc(O)c(O)c1 = -0.22
O=C(Nc1ccc(C(=O)O)c(O)c1)c1ccc(C(=O)Nc2ccc(O)c(C(=O)O)c2)cc1 = 1.21
CCCCCc1cc2cc(O)cc(Oc3c(O)cc(O)c(C(=O)O)c3CCCCC)c2c(=O)o1 = 1.66
CCOC(=O)c1cnc(NCCCNc2ncc(C(=O)OCC)c(=O)[nH]2)[nH]c1=O = 1.22

Ask | Data request, read-out log10 of IC50, for O=C(c1ccc(O)cc1O)C1C(c2ccc(O)cc2)OC(c2ccc(O)cc2)C1C(=O)c1ccc(O)cc1O (stereo not drawn)
Reply | 2.16

Ask | Note, next up: CCCCCc1cc(O)cc2c1Oc1cc(O)cc(C(=O)CCCC)c1C(=O)O2
Reply | 1.59

Ask | Note, next up: Nc1cc(C(=O)O)c(-c2cc(O)c(N)cc2C(=O)O)cc1O
Reply | 2.37

###

- system.tested: UniProtKB P89582
- Sequence (P89582 whole entry): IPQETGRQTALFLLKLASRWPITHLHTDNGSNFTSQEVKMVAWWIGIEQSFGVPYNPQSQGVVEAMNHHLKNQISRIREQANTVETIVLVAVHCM
- protocol.summary: Inhibitory concentration of compound against strand transfer of HIV-2 integrase
observation.type: IC50 (µM)
Response body: numeric value in µM, unit text excluded.

Ask | Data request, read-out IC50, for O=C(/C=C/c1ccc(O)c(O)c1)O[C@H]1[C@H](O)C[C@](O)(C(=O)O)C[C@H]1OC(=O)/C=C/c1ccc(O)c(O)c1
Reply | 0.5

###

- system.tested: Human immunodeficiency virus type 1 integrase (Human immunodeficiency virus 1)
- protocol.summary: Inhibitory concentration of compound against 3'-processing of HIV-1 integrase in experiment 2
observation.type: pIC50
Scale: negative log10 of molar concentration, which is what pIC50 denotes.

Check out these entries, answers already filled in.
CC(=O)C1=C(NNC(=O)c2ccccn2)[C@@]2(C)C(=CC1=O)Oc1c(C(C)=O)c(O)c(C)c(O)c12 = 4.22
Cc1ncc(COP(=O)(O)O)c(C2NC(C(=O)O)CS2)c1O (stereo not drawn) = 4.12
COc1cc(C)c2c(c1C)OC(=O)c1c(C)c(Cl)c(O)c(C=O)c1O2 = 5.57

Ask | Could you share what pIC50 was measured for COc1cc(C)c2c(c1C=O)Oc1c(c(C)c(O)c3c1C(O)OC3=O)OC2=O (stereo not drawn) , tested on Human immunodeficiency virus type 1 integrase (Human immunodeficiency virus 1)?
Reply | 5.54

Ask | Note, next up: CCCCCc1cc(O)cc2c1Oc1cc(O)cc(C(=O)CCCC)c1C(=O)O2
Reply | 4.37

Ask | Note, next up: O=C(O)c1ccc(C(=O)O)c2c(C(=O)O)ccc(C(=O)O)c12
Reply | 3.76

###

- system.tested: Human immunodeficiency virus type 2 integrase (Human immunodeficiency virus 2)
- Sequence (P89582 whole entry): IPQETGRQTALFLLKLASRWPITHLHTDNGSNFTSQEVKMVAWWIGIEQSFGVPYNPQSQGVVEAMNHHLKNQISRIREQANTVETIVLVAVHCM
- protocol.summary: Inhibitory concentration of compound against strand transfer of HIV- integrase
observation.type: pIC50
Scale: negative log10 of molar concentration, which is what pIC50 denotes.

Ask | Data request, read-out pIC50, for O=C(NO)c1cc(O)c(O)c(O)c1
Reply | 5.80

###

- system.tested: Human immunodeficiency virus type 1 integrase (Human immunodeficiency virus 1)
- protocol.summary: Inhibitory concentration of compound against disintegration (reversal of strand transfer)of HIV-1 integrase
observation.type: IC50

Check out these entries, answers already filled in.
CC(=O)C1=C(NNC(=O)c2ccccn2)[C@@]2(C)C(=CC1=O)Oc1c(C(C)=O)c(O)c(C)c(O)c12 = 39 µM
COC(=O)c1c(C)c2c(c(C)c1O)OC(=O)c1c(C)cc(O)c(C=O)c1O2 = 26 µM
CCCCCc1cc2cc(O)cc(Oc3c(O)cc(O)c(C(=O)O)c3CCCCC)c2c(=O)o1 = 35 µM
COc1cc(C)c2c(c1C=O)Oc1c(c(C)c(O)c3c1C(O)OC3=O)OC2=O (stereo not given) = 11.7 µM

// switching to the query molecule
Ask | Could you share what IC50 was measured for COC(=O)c1c(C)cc(OC(=O)c2c(C)cc(O)c(C=O)c2O)c(C)c1O , tested on Human immunodeficiency virus type 1 integrase (Human immunodeficiency virus 1)?
Reply | 128 µM

###

- system.tested: Human immunodeficiency virus type 1 integrase (Human immunodeficiency virus 1)
- protocol.summary: Inhibitory concentration of compound against strand transfer of HIV-1 integrase in experiment 1&2
Measured pIC50 of individual entries
Scale: negative log10 of molar concentration, which is what pIC50 denotes.

Ask | Data request, read-out pIC50, for Cc1cc(O)c(C=O)c2c1C(=O)Oc1c(C)c(O)c(C(=O)O)c(C)c1O2
Reply | 5.19

Ask | Note, next up: CCCCCC(=O)Cc1cc(O)cc2c1C(=O)Oc1cc(O)c(C(=O)O)c(CCCCC)c1O2
Reply | 4.51

Ask | Note, next up: Cc1cc(Cc2cc(C)c(O)c(C(=O)O)c2)cc(C(=O)O)c1O
Reply | 4.16

###

- system.tested: Human immunodeficiency virus type 1 integrase (Human immunodeficiency virus 1)
- protocol.summary: Inhibitory concentration of compound against 3'-processing of HIV-1 integrase in experiment 2
pIC50: −log10 of the molar value.
Please use criterion met whenever pIC50 is not below 5, and criterion not met whenever it is.

O=C(NO)c1cc(O)c(O)c(O)c1 = criterion met
Cc1c2cc(O)c(=O)cc-2oc2cc(O)c(O)cc12 = criterion met
O=C1OC2C(O)COC2(O)C1(O)Cc1cc(O)c(O)c(Br)c1Br (centres undefined) = criterion not met

Shift focus to the following entry.
Ask | # check: pIC50 of O=C(/C=C/c1ccc(O)c(O)c1)O[C@@H]1C[C@](O)(C(=O)O)C[C@@H](O)[C@H]1O (single isomer, unassigned) is greater than or equal to 5
Reply | criterion not met

###

- system.tested: UniProtKB Q7ZJM1
- protocol.summary: Inhibitory concentration of compound against 3'-processing of HIV-1 integrase in experiment 1&2
Entries whose IC50 is below 5 µM take true (1); entries at or above 5 µM take false (0).

Cc1cc(O)c(C=O)c2c1C(=O)Oc1c(C)c(O)c(C(=O)O)c(C)c1O2 = true (1)
Cc1cc(Cc2cc(C)c(O)c(C(=O)O)c2)cc(C(=O)O)c1O = false (0)
CCCCCC(=O)Cc1cc(O)cc2c1C(=O)Oc1cc(O)c(C(=O)O)c(CCCCC)c1O2 [PHYSODIC ACID] = false (0)

Ask | Is IC50 of COC(=O)c1c(C)c2c(c(C)c1O)OC(=O)c1c(C)cc(O)c(C=O)c1O2 strictly below 5 µM?
Reply | false (0)

Ask | Note, next up: CC(=O)C1=C(O)C=C2Oc3c(C(C)=O)c(O)c(C)c(O)c3[C@@]2(C)C1=O [(+)-USNIC ACID]
Reply | false (0)
